Read-out: Cytochrome P450 (CYP1A1), CYP1A1 (gene 1543)
protocol summary: LTEA_HepaRG_CYP1A1: Life Technologies and Expression Analysis (LTEA) Assay for Cytochrome P450 (CYP1A1) using HepaRG (AID 2283454)
condition details: mRNA level, 48 h; actives raise or lower the signal
The source made the active and inactive calls. How the source made its calls: active means hit-call score of the fitted dose curve at least 0.9, where 1 is the maximum; inactive means score below 0.9.
Outcomes: 1 (yes) (active), 0 (no) (inactive)

chemical string | class assignment
Cc1ncc(CO)c(CO)c1O | 1 (yes)
CCCCCCCCCCCCO | 0 (no)
CCCCCCCCCC(=O)O | 1 (yes)
CCCCCCCCCCCC[N+](C)(C)C | 1 (yes)
Cc1ccc2oc(CN(Cc3ccccc3)C(=O)Nc3c(F)cc(F)cc3F)c(-c3ccc(Cl)cc3)c2c1 | 1 (yes)
O=c1[nH]sc2ccccc12 | 1 (yes)
COc1cc(C(=O)NC2CCN(C)CC2)ccc1Nc1ncc2c(n1)N(C1CCCC1)CC(F)(F)C(=O)N2C | 1 (yes)
NC(=O)c1nc(-c2cccc(-c3cc(F)ccc3OCC(F)(F)C(F)(F)F)c2)n[nH]1 | 1 (yes)
O=c1c(-c2ccc(O)cc2)coc2cc(O)cc(O)c12 | 0 (no)
CCCCCCCC[Si](OCC)(OCC)OCC | 0 (no)
CC(C)(O)c1ccc(CNC(=O)c2cccnc2Oc2ccc3nonc3c2)cc1 | 1 (yes)
O=C1c2ccccc2C(=O)N1CCc1noc(-c2ccc(CN3CCCCCC3)s2)n1 | 1 (yes)
CC[C@@H]1C[C@H](N(Cc2cc(C(F)(F)F)cc(C(F)(F)F)c2)C(C)=O)c2cc(C(F)(F)F)ccc2N1C(=O)OC(C)C | 1 (yes)
O=C(O)Cn1c(=O)n(Cc2ccc(Br)cc2F)c(=O)c2ccc(Cl)cc21 | 1 (yes)

----------
protocol summary: ATG_RORE_CIS: Attagene CIS-FACTORIAL HepG2 Assay for human RAR-related Orphan Receptor Element (RORE) (AID 2282959)
condition details: HepG2 Attagene cis-factorial RORE reporter, mRNA; actives raise or lower the signal
The source made the active and inactive calls. Rule for the calls: active = hit-call score of the fitted dose curve at least 0.9, where 1 is the maximum; inactive = score below 0.9.
Outcomes: class 1 = active, class 0 = inactive

compound | class assignment
Cc1ncc(CO)c(CO)c1O | class 0
O=C1CCC(C2CCCCC2)CC1 | class 0
COCC(C)OCC(C)OCC(C)O (configuration not stated) | class 0
CC(=O)N1CCN(c2ccc(OC[C@H]3CO[C@](Cn4ccnc4)(c4ccc(Cl)cc4Cl)O3)cc2)CC1 | class 1
CCCCCCCCN(C)CCCCCCCC | class 0
CCCC(=O)OCCC(C)C | class 0
CC(C)(O)c1ccc(CNC(=O)c2cccnc2Oc2ccc3nonc3c2)cc1 | class 0

----------
protocol summary: Tanguay_ZF_120hpf_YSE_legacy: (Legacy) Oregon State University Tanguay Lab 120 Hour Post-fertilization zebrafish Assay for Yolk Sac Edema (AID 2283634)
Results filed as inconclusive are left out. Activity calls are given as the source filed them. How the source made its calls: active means hit-call score of the fitted dose curve at least 0.9, where 1 is the maximum; inconclusive means response in the unintended direction; inactive means score below 0.9.
Outcomes: active, inactive

chemical string | class assignment
CCCCCCCCCCCC[N+](C)(C)C | inactive
C[C@]12CC[C@@H]3c4ccc(O)cc4CC[C@H]3[C@@H]1CC[C@H]2O | inactive
O=C(O)Cn1c(=O)n(Cc2ccc(Br)cc2F)c(=O)c2ccc(Cl)cc21 | inactive
CCCCCCCCCCCCO | inactive
Cc1ncc(CO)c(CO)c1O | inactive
CC1=CC(=O)/C(=C(/C)O)C(=O)O1 | inactive
CCCC(=O)OCCC(C)C | inactive
O=c1[nH]sc2ccccc12 | inactive
Cc1cn([C@H]2C[C@H](N=[N+]=[N-])[C@@H](CO)O2)c(=O)[nH]c1=O | inactive
Clc1ccccc1C(c1ccccc1)(c1ccccc1)n1ccnc1 | active
CN(C[C@@H](CC[N+]12CCC(C3CCCCC3)(CC1)CC2)c1ccc(Cl)c(Cl)c1)C(=O)c1cc(C(F)(F)F)cc(C(F)(F)F)c1 | inactive
CCCCCCCCOc1ccc(C(=O)c2ccccc2)c(O)c1 | inactive
